The measured values listed here are drawn from PubChem BioAssay (Tox21).

# ASSAY_NOTES: qHTS assay to identify small molecule antagonists of the estrogen receptor beta (ER-beta) signaling pathway - cell viability counter screen (AID 1259382);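 also: HEK293T cells carrying ER-beta-UAS-bla reporter stimulated with estradiol; nearly all actives have a fitted effect of over 55% in size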
# MEASUREMENT_CONTEXT: ER-beta-UAS-bla HEK293T viability, CellTiter-Glo luminescence, 16 h; series mostly up to 92.4 µM
Inconclusive results are not listed. Calls of active or inactive are those of the source. Calls follow the shape of the dose curve; as a rule, active = well fitted cell-killing curve with a large enough effect in the repeat runs; inconclusive = weak or mixed curves; inactive = flat fitted curve, though single readings scatter.
OUTCOME_MEASURE: activity change, negative = cytotoxicity

[[record]]
compound = "CNc1c2c(nn1C)CCCC2"
result = "inactive"

[[record]]
compound = "CC(C)(C(=O)c1cccnc1)c1cccnc1"
result = "inactive"

[[record]]
compound = "c1ccc(CNc2ncnc3c2ncn3C2CCCCO2)cc1 (stereo unspecified)"
result = "inactive"

[[record]]
compound = "CC(C)CC(O)CC(C)C"
result = "inactive"

[[record]]
compound = "Cc1cccc2sc(N)nc12"
result = "inactive"

[[record]]
compound = "CC(=O)NNC(C)=O"
result = "inactive"

[[record]]
compound = "C=CC(=O)O"
result = "inactive"

[[record]]
compound = "COc1ccc(-n2nc(C(F)F)cc2-c2ccc(S(C)=O)cc2)cc1 (stereo unspecified)"
result = "inactive"

[[record]]
compound = "CCc1ccc(C)cc1"
result = "inactive"

[[record]]
compound = "CCNc1nc(N)nc(Cl)n1"
result = "inactive"

[[record]]
compound = "C/C(C=O)=C\\c1ccccc1"
result = "inactive"

[[record]]
compound = "C=CCOC(=O)COCCC(C)C"
result = "inactive"

[[record]]
compound = "CCCCCC"
result = "inactive"

[[record]]
compound = "ClC1=C(Cl)C1(Cl)Cl"
result = "inactive"

[[record]]
compound = "O=C(NS(=O)(=O)/C=C/c1ccccc1)c1ccc(F)cc1Cl"
result = "inactive"

[[record]]
compound = "CC(=O)Oc1cccc(O)c1"
result = "inactive"

